These measurements were taken from patent US10280205B2.

biological target: HLA-A*02:01 (Homo sapiens, UniProt P04439, D140Y/D185E/D98H/E176V/E277Q/G131W/G231S/I119V/I121R/I166T/I218V/L300P/L318F/N151K/N90K/P208A/P217A/Q86G/Q94H/R138H/R169H/T345S); assay: MHC binding assay: UV-ligand exchange with beta2m ELISA (exchange yield); conditions: binding to HLA-A*02:01, β2m ELISA
Measured Quantity: Peptide exchange (MHC class I binding score, peptide exchange yield)

{"Substance": "399 (YLFEPLYHV; listed as Homo sapiens) [compound 399]", "Result": "“+++” (≥50 = +++)"}
{"Substance": "169 (NLPEYLPFV; listed as Homo sapiens) [compound 169]", "Result": "“+++” (≥50 = +++)"}
{"Substance": "436 (HLAEVSAEV; listed as Homo sapiens) [compound 436]", "Result": "“+++” (≥50 = +++)"}
{"Substance": "216 (NLWEDPYYL; listed as Homo sapiens) [compound 216]", "Result": "“+++” (≥50 = +++)"}
{"Substance": "497 (GLLEKLTAI; listed as Homo sapiens) [compound 497]", "Result": "“+++” (≥50 = +++)"}
{"Substance": "15 (VLLTFKIFL; listed as Homo sapiens) [compound 15]", "Result": "“++” (≥20% = ++)"}
{"Substance": "432 (TLIEESAKV; listed as Homo sapiens) [compound 432]", "Result": "“++” (≥20% = ++)"}
{"Substance": "516 (AVGPASILKEV; listed as Homo sapiens) [compound 516]", "Result": "“++” (≥20% = ++)"}

Fill in the blank: the reported Peptide exchange (MHC class I binding score, peptide exchange yield) of 288 (NLINEINGV; listed as Homo sapiens) [compound 288] is ____. “+++” (≥50 = +++)

Fill in the blank: the reported Peptide exchange (MHC class I binding score, peptide exchange yield) of 224 (TLIDAQWVL; listed as Homo sapiens) [compound 224] is ____. “+++” (≥50 = +++)

Fill in the blank: the reported Peptide exchange (MHC class I binding score, peptide exchange yield) of 42 (VLLQKIVSA; listed as Homo sapiens) [compound 42] is ____. “+++” (≥50 = +++)

Fill in the blank: the reported Peptide exchange (MHC class I binding score, peptide exchange yield) of 588 (SLLPLSHLV; listed as Homo sapiens) [compound 588] is ____. “+++” (≥50 = +++)

Fill in the blank: the reported Peptide exchange (MHC class I binding score, peptide exchange yield) of 170 (RLQETLSAA; listed as Homo sapiens) [compound 170] is ____. “+++” (≥50 = +++)

Fill in the blank: the reported Peptide exchange (MHC class I binding score, peptide exchange yield) of 187 (RQISIRGIVGV; listed as Homo sapiens) [compound 187] is ____. “+++” (≥50 = +++)

Fill in the blank: the reported Peptide exchange (MHC class I binding score, peptide exchange yield) of 261 (YVLEFLEEI; listed as Homo sapiens) [compound 261] is ____. “++” (≥20% = ++)

====

molecular target: HLA-A*02:01 (Homo sapiens, UniProt P04439, D140Y/D185E/D98H/E176V/E277Q/G131W/G231S/I119V/I121R/I166T/I218V/L300P/L318F/N151K/N90K/P208A/P217A/Q86G/Q94H/R138H/R169H/T345S); experiment: MHC binding assay: UV-ligand exchange with beta2m ELISA (exchange yield); conditions: binding to HLA-A*02:01, β2m ELISA
Measured Quantity: Peptide exchange (MHC class I binding score, peptide exchange yield)

Example results:
{"Substance": "600 (ALAAPDIVPAL; listed as Homo sapiens) [compound 600]", "Result": "“+++” (≥50 = +++)"}
{"Substance": "324 (FLYDEIEAEV; listed as Homo sapiens) [compound 324]", "Result": "“+++” (≥50 = +++)"}
{"Substance": "109 (IILSILEQA; listed as Homo sapiens) [compound 109]", "Result": "“++++” (≥75% = ++++)"}
{"Substance": "446 (QLIPALAKV; listed as Homo sapiens) [compound 446]", "Result": "“+++” (≥50 = +++)"}
{"Substance": "171 (LLLPLQILL; listed as Homo sapiens) [compound 171]", "Result": "“+++” (≥50 = +++)"}

Fill in the blank: the reported Peptide exchange (MHC class I binding score, peptide exchange yield) of 19 (FMVDNEAIYDI; listed as Homo sapiens) [compound 19] is ____. “++++” (≥75% = ++++)

Fill in the blank: the reported Peptide exchange (MHC class I binding score, peptide exchange yield) of 47 (ILLSVPLLVV; listed as Homo sapiens) [compound 47] is ____. “++” (≥20% = ++)

Fill in the blank: the reported Peptide exchange (MHC class I binding score, peptide exchange yield) of 472 (KLLEVSDDPQV; listed as Homo sapiens) [compound 472] is ____. “+++” (≥50 = +++)

Fill in the blank: the reported Peptide exchange (MHC class I binding score, peptide exchange yield) of 199 (ALQDVPLSSV; listed as Homo sapiens) [compound 199] is ____. “+++” (≥50 = +++)

Fill in the blank: the reported Peptide exchange (MHC class I binding score, peptide exchange yield) of 490 (FLLQHVQEL; listed as Homo sapiens) [compound 490] is ____. “+++” (≥50 = +++)

Fill in the blank: the reported Peptide exchange (MHC class I binding score, peptide exchange yield) of 121 (GVVDPRAISVL; listed as Homo sapiens) [compound 121] is ____. “++” (≥20% = ++)

Fill in the blank: the reported Peptide exchange (MHC class I binding score, peptide exchange yield) of 87 (ALPEAPAPLLPHIT; listed as Homo sapiens) [compound 87] is ____. “++” (≥20% = ++)

Fill in the blank: the reported Peptide exchange (MHC class I binding score, peptide exchange yield) of 226 (MLYVVPIYL; listed as Homo sapiens) [compound 226] is ____. “++” (≥20% = ++)

Fill in the blank: the reported Peptide exchange (MHC class I binding score, peptide exchange yield) of 620 (KLLNKIYEA; listed as Homo sapiens) [compound 620] is ____. “++++” (≥75% = ++++)

Fill in the blank: the reported Peptide exchange (MHC class I binding score, peptide exchange yield) of 511 (FLDPYCSASV; listed as Homo sapiens) [compound 511] is ____. “++” (≥20% = ++)

Fill in the blank: the reported Peptide exchange (MHC class I binding score, peptide exchange yield) of 565 (ALQETPTSV; listed as Homo sapiens) [compound 565] is ____. “++” (≥20% = ++)

Fill in the blank: the reported Peptide exchange (MHC class I binding score, peptide exchange yield) of 440 (ALADGVTMQV; listed as Homo sapiens) [compound 440] is ____. “++” (≥20% = ++)

Fill in the blank: the reported Peptide exchange (MHC class I binding score, peptide exchange yield) of 9 (GAAKDLPGV; listed as Homo sapiens) [compound 9] is ____. “++” (≥20% = ++)

Fill in the blank: the reported Peptide exchange (MHC class I binding score, peptide exchange yield) of 514 (ILVDWLVQV; listed as Homo sapiens) [compound 514] is ____. “+++” (≥50 = +++)

Fill in the blank: the reported Peptide exchange (MHC class I binding score, peptide exchange yield) of 563 (WLLPYNGVTV; listed as Homo sapiens) [compound 563] is ____. “+++” (≥50 = +++)

Fill in the blank: the reported Peptide exchange (MHC class I binding score, peptide exchange yield) of 332 (YLISELEAA; listed as Homo sapiens) [compound 332] is ____. “+++” (≥50 = +++)

Fill in the blank: the reported Peptide exchange (MHC class I binding score, peptide exchange yield) of 282 (LLADVVPTT; listed as Homo sapiens) [compound 282] is ____. “+++” (≥50 = +++)

Fill in the blank: the reported Peptide exchange (MHC class I binding score, peptide exchange yield) of 46 (ILTEENIHL; listed as Homo sapiens) [compound 46] is ____. “+++” (≥50 = +++)
